Test system: HSV-1, strain F in Vero cells
procedure-text: HSV CPE assay, HSV-1
Assay type: cell-based
condition-info: Human alphaherpesvirus 1, Vero, 120 h, read-out: HSV1 Cell^b (EC50), unstarred values: CPE assay of Example 25, Vero cells, 5 days
Exercise: state measured pEC50 for each of the compounds provided.
Would you please state pEC50, meaning minus log10 of the concentration in mol/L, as a bare number?

## Input Consider the compound `Cc1c(N2CCn3nncc3C2)ccc2c(C(=O)NCc3ccc(C#N)cc3)nn(C[C@H](C)NC(=O)C(C)C)c12` . State its measured pEC50.
## Output 4.85

## Input Consider the compound `Cc1c(N2CCn3nncc3C2)ccc2c(C(=O)NCc3ccc(C#N)cc3)nn(CCC#N)c12` . State its measured pEC50.
## Output 5.80

## Input Consider the compound `Cc1cc(CN2CCCS(=O)(=O)CC2)cc2c(C(=O)NCc3ccc(C#N)cc3)nn(CCC#N)c12` . State its measured pEC50.
## Output 5.19
